Target: eIF4E (untagged, co-expressed with p20);His6x-p20 WT (Saccharomyces cerevisiae;Saccharomyces cerevisiae) (UniProt P07260+P12962)
Sequence 1: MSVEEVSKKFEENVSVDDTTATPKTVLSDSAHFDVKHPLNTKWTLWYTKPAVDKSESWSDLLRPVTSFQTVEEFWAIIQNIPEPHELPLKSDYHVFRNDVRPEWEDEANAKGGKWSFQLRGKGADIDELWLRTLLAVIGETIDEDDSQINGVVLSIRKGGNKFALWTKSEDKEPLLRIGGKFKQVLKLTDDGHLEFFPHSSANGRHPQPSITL
Sequence 2: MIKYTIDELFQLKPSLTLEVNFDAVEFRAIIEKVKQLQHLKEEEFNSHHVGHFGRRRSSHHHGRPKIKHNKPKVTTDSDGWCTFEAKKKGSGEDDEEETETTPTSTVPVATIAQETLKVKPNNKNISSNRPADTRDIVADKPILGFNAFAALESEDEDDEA
Assay: EMSA
Conditions: 5' m7GpppG cap (Vaccinia Capping System); Buffer A: 10 mM sodium phosphate pH 7.5, 100 mM NaCl, 2.5 mM MgCl2, 1 mM DTT, 0.05% NP40; MST at 25 C (proteins for capped RNA MST RED-tris-NTA labeled in …)
endpoint_name: pKd
# reply with the number alone; pKd is -log10 of concentration in mol/L

Ask: What does the data say about its pKd? Entry: GGGAACAAAAGCUGGUAAUCAAGAAUUACAAGAAACAAAAAUUCAAGUAAAUAACAGAUAAUAC [capped SSA1 5'UTR RNA, 64 nt]
Result: 7.19
